Data provenance: paper PMC6753678

System: HepG2 cells
Test Description: HepG2 cytotoxicity assay
Condition Info: unified HepG2 value across the three screens
Below is a list of entries, each paired with its recorded Unified cytotox value.
Provide only the numeric value, understood in µM.

The following molecules have reported results that may help.
CCn1cc(C(=O)O)c(=O)c2cc(F)c(N3CCN(S(=O)(=O)c4ccc(N)cc4)CC3)cc21 = 100.00
CCCCCCCCc1c(C)[nH]c(C)c(C#N)c1=O = 34.67
N#Cc1cc([N+](=O)[O-])ccc1-n1nc(C(N)=O)n(Cc2cccc(F)c2)c1=S = 34.67

[ask] Under HepG2 cells: report Unified cytotox of Cc1ccc(Nc2nc3cc(N(C)c4ccnc(Nc5cccc(CCS(C)(=O)=O)c5)n4)ccc3n2C)cc1.O=C(O)C(F)(F)F .
[reply] 3.31

[ask] Give HepG2 cells Unified cytotox for the following molecule: CCOC(=O)c1c[nH]c2c(ccc3ccccc32)c1=O
[reply] 100.00

[ask] Report its Unified cytotox with HepG2 cells as the test system: Nc1nc(N)c2c(Cl)c(N3CCOCC3)ccc2n1
[reply] 0.00861

[ask] State recorded Unified cytotox with HepG2 cells, entry Cc1ccc2[nH]c(C)c(Br)c(=O)c2c1 , no comment.
[reply] 100.00
